Origin of measurements: PubChem BioAssay (NCI)

System: MCF7 breast
Assay Comment: NCI-60 one-dose screen, 48 h (100 = growth as untreated, 0 = no growth, -100 = all killed)
Conditions Used: 10 µM
This is part of a sample that, as a whole, favours compounds with a hit. Of some 83,000 tested, about 20% had one in any assay.
Observable: growth (%)
Give the quantity in %, number only.

INSERT INTO results (compound, units_label, numeric_result) VALUES
  ('COc1cc2c3c(n(C4CCNCC4)c(=O)c2cc1OC)-c1cc2c(cc1C3=O)OCO2', '%', -53.8),
  ('Nc1nc(Cl)nc2c1ncn2C1O[C@H](CO)[C@@H](O)[C@@H]1F (stereo partly drawn)', '%', 30.7);

Next:
Please report the recorded growth for `C[n+]1c2ccccc2nc2ccccc21` .
-19.4

----------
Tested on: MDA-MB-231 breast
Assay Comment: NCI-60 one-dose screen, 48 h
Conditions Used: 10 µM
About 83,000 compounds went through this panel and 20% of them were active in at least one assay; those are over-represented in the sample as a whole. Active and inactive are the calls of the source. How the source made its calls: active means growth percent below 10; inactive means the rest.
Respond only with the outcome that fits, drawn from active, inactive

Take a look at these entries with their results.
INSERT INTO results (compound, system_under_test, label) VALUES
  ('Nc1cc(-c2ccncc2)c[nH]c1=O', 'MDA-MB-231 breast', 'inactive'),
  ('Cc1cc(Br)nnc1Br', 'MDA-MB-231 breast', 'inactive'),
  ('COc1cc2c(Nc3ccc(-c4ccc(N)cc4)cc3)ncnc2c(OC)c1OC', 'MDA-MB-231 breast', 'inactive'),
  ('O=C(CNc1nnc(-c2cccnc2SCc2ccccc2)s1)Nc1nc(Cl)cc(Cl)n1', 'MDA-MB-231 breast', 'inactive');

GET /call?item= COc1cc2c(cc1OC)C(C(CCCCCC(CCC(C)C)C1NCCc3cc(OC)c(OC)cc31)CCC(C)C)NCC2 (centres undefined) returns the recorded outcome of this test.
active

C=C(NC(=O)C(=C)NC(=O)c1csc(C2=NC3c4csc(n4)C4NC(=O)c5csc(n5)C(C(C)(O)C(C)O)NC(=O)C5CSC(=N5)C(=CC)NC(=O)C(C(C)O)NC(=O)c5csc(n5)C3(CC2)NC(=O)C(C)NC(=O)C(=C)NC(=O)C(C)NC(=O)C(C(C)CC)NC2C=Cc3c(C(C)O)cc(nc3C2O)C(=O)OC4C)n1)C(N)=O (centres undefined) , same question.
active

`N=C1S/C(=C/c2ccc(-c3ccc4c(c3)C(=O)NC4=O)o2)C(=O)N1c1ccc(Br)cc1` , same question.
inactive

`c1ccc2c(c1)Cc1ccccc1N2CCN1CCCCC1` , same question.
inactive

NC1=NC(c2ccc(Cl)cc2)C2=C(N1)/C(=C/c1ccc(Cl)cc1)CCC2 (centres undefined) , same question.
inactive

----------
System: NCI-H23 lung
Assay Comment: NCI-60 one-dose screen, 48 h
Conditions Used: 10 µM
This is part of a sample that, as a whole, favours compounds with a hit. Of some 83,000 tested, about 20% had one in any assay. Activity calls are given as the source filed them. How the source made its calls: active means growth percent below 10; inactive means the rest.
Respond only with the outcome that fits, drawn from Yes for active, No for inactive

Take a look at these entries with their results.
INSERT INTO assay_data (molecule, label) VALUES
  ('CCOc1ccccc1/C=N\N=C\c1ccccc1O', 'No'),
  ('Cc1ccc(NCCNCC(C)(C)O)c2c(=O)c3ccc(Cl)cc3sc12', 'No'),
  ('COc1cc2c3c(n([C@@H]4CCOC4)c(=O)c2cc1OC)-c1cc2c(cc1C3=O)OCO2', 'No'),
  ('COc1ccc2nc3cc(Cl)ccc3c(N)c2c1', 'Yes'),
  ('CCCCC1(O)CCCCC1', 'No');

GET /call?item= `CC(=O)[C@H]1CC[C@]2(C)[C@@H]1CC[C@@H]1[C@@]3(C)CC(CCC#N)(CCC#N)C(=O)C(C)(C)[C@@H]3CC[C@]12C` returns the recorded outcome of this test.
No

`Cc1c(Cl)cccc1NC(=O)CCCl` , same question.
No

CC(CN(C)C)Oc1ccccc1NC1=C(Cl)C(=O)C(Nc2ccccc2OC(C)CN(C)C)=C(Cl)C1=O (configuration not stated) , same question.
Yes
